tested on: RIVA; assay: growth inhibition by drug alone (1 - RLU/untreated control) (fraction); higher = stronger inhibition; details: 100 nM; time (day): 4; 177Lu-lilotomab satetraxetan 0 ug/ml
Let's look at some compounds and their measured growth inhibition by drug alone.

compound: O=C(Nc1cccnc1)N1CCC(Cc2cccc(Oc3ccc(C(F)(F)F)cn3)c2)CC1
growth inhibition by drug alone: 0.0224
//
compound: C#Cc1cccc(Nc2ncnc3cc(OC)c(OCCCCCCC(=O)NO)cc23)c1
growth inhibition by drug alone: 0.779
//
compound: C[C@]1(c2nc3c(C(N)=O)cccc3[nH]2)CCCN1 [ABT-888 (Veliparib)]
growth inhibition by drug alone: -0.238
//
compound: C[C@@H](Oc1cc(-c2cnn(C3CCNCC3)c2)cnc1N)c1c(Cl)ccc(F)c1Cl
growth inhibition by drug alone: -0.211
//
compound: CC(C)C[C@H](NC(=O)[C@@H](O)[C@H](N)Cc1ccccc1)C(=O)O [Ubenimex (Bestatin)]
growth inhibition by drug alone: 0.0221
//
compound: CN(C)CCOc1ccc(-c2nc(-c3ccncc3)c(-c3ccc4c(c3)CC/C4=N\O)[nH]2)cc1
growth inhibition by drug alone: -0.651
//
compound: CN[C@@H](C)C(=O)N[C@H]1CN(C(=O)CC(C)C)CC[C@H]2CC[C@@H](C(=O)NC(c3ccccc3)c3ccccc3)N2C1=O
growth inhibition by drug alone: -0.227
//
compound: CS(=O)(=O)N1CCN(Cc2cc3nc(-c4cccc5[nH]ncc45)nc(N4CCOCC4)c3s2)CC1
growth inhibition by drug alone: 0.409
//
compound: COc1c(C)c2c(c(O)c1C/C=C(\C)CCC(=O)OCCN1CCOCC1)C(=O)OC2 [Mycophenolate mofetil (CellCept)]
growth inhibition by drug alone: 0.214
//
compound: Cn1cc(-c2ccc3nnc(C(F)(F)c4ccc5ncccc5c4)n3n2)cn1
growth inhibition by drug alone: -0.252
//
compound: CC[C@]1(O)C[C@@H]2CN(CCc3c([nH]c4ccccc34)[C@@](C(=O)OC)(c3cc4c(cc3OC)N(C)[C@H]3[C@@](O)(C(=O)OC)[C@H](OC(C)=O)[C@]5(CC)C=CCN6CC[C@]43[C@@H]65)C2)C1 [Vinblastine]
growth inhibition by drug alone: 0.442
//
compound: O=C(NCCCNc1nc(Nc2cccc(NC(=O)N3CCCC3)c2)ncc1I)c1cccs1
growth inhibition by drug alone: 0.317
//
compound: O=C(/C=C/c1cccnc1)NCCCCC1CCN(C(=O)c2ccccc2)CC1
growth inhibition by drug alone: 0.982
//
compound: Cc1ccc(F)c(NC(=O)Nc2ccc(-c3cccc4[nH]nc(N)c34)cc2)c1 [Linifanib (ABT-869)]
growth inhibition by drug alone: 0.000859
//
compound: O=C(O)c1ccc2c(c1)nc(Nc1cccc(Cl)c1)c1ccncc12 [cx-4945 (Silmitasertib)]
growth inhibition by drug alone: -0.00845
//
compound: COc1cc(Nc2ncc(F)c(Nc3ccc4c(n3)N(COP(=O)(O)O)C(=O)C(C)(C)O4)n2)cc(OC)c1OC
growth inhibition by drug alone: -0.0606
//
compound: OCCn1cc(-c2ccc3c(c2)CC/C3=N\O)c(-c2ccncc2)n1
growth inhibition by drug alone: -0.208

* * *

tested on: RIVA; assay: growth inhibition by drug plus 177Lu-lilotomab satetraxetan (1 - RLU/untreated control) (fraction); higher = stronger inhibition; conditions: 100 nM; time (day): 3; 177Lu-lilotomab satetraxetan 0.5 ug/ml
Let's look at some molecules and their measured growth inhibition by drug plus 177Lu-lilotomab satetraxetan.
reported metric: growth inhibition by drug plus 177Lu-lilotomab satetraxetan

molecule: O=C1c2ccccc2C(=O)c2c(NCCc3ccc(O)cc3)ccc(NCCc3ccc(O)cc3)c21
observed measurement: 0.329
--
molecule: Nc1ccc(-c2ccc3ncc4ccc(=O)n(-c5cccc(C(F)(F)F)c5)c4c3c2)cn1 [Torin 2]
observed measurement: 0.838
--
molecule: C[C@@H](O[C@H]1OCCN(Cc2n[nH]c(=O)[nH]2)[C@H]1c1ccc(F)cc1)c1cc(C(F)(F)F)cc(C(F)(F)F)c1 [Aprepitant (MK-0869)]
observed measurement: 0.319
--
molecule: Cc1ccc(F)c(NC(=O)Nc2ccc(-c3cccc4[nH]nc(N)c34)cc2)c1 [Linifanib (ABT-869)]
observed measurement: 0.515

* * *

tested on: RIVA; test: growth inhibition by drug plus 177Lu-lilotomab satetraxetan (1 - RLU/untreated control) (fraction); higher = stronger inhibition; settings: 10 nM; time (day): 6; 177Lu-lilotomab satetraxetan 0.5 ug/ml
Please note: rule met applies when growth inhibition by drug plus 177Lu-lilotomab satetraxetan is 0.6 or greater, and rule not met applies otherwise.

compound: C[C@]1(c2nc3c(C(N)=O)cccc3[nH]2)CCCN1
assigned class: rule not met
//
compound: C=C1/C(=C\C=C2/CCC[C@]3(C)[C@@H]([C@H](C)/C=C/[C@H](C)C(C)C)CC[C@@H]23)C[C@@H](O)C[C@@H]1O
assigned class: rule met
//
compound: COc1c(C)c2c(c(O)c1C/C=C(\C)CCC(=O)OCCN1CCOCC1)C(=O)OC2 [Mycophenolate mofetil (CellCept)]
assigned class: rule not met
//
compound: CC[C@]1(O)C[C@@H]2CN(CCc3c([nH]c4ccccc34)[C@@](C(=O)OC)(c3cc4c(cc3OC)N(C)[C@H]3[C@@](O)(C(=O)OC)[C@H](OC(C)=O)[C@]5(CC)C=CCN6CC[C@]43[C@@H]65)C2)C1
assigned class: rule not met
//
compound: COc1nc(-c2ccc3c(c2)OCO3)n(-c2ccc(NC(=O)CSc3ccccc3)cc2)n1
assigned class: rule not met
//
compound: Nc1ccc(-c2ccc3ncc4ccc(=O)n(-c5cccc(C(F)(F)F)c5)c4c3c2)cn1
assigned class: rule not met
//
compound: COC(=O)c1ccc2c(C(=Nc3ccc(N(C)C(=O)CN4CCN(C)CC4)cc3)c3ccccc3)c(O)[nH]c2c1
assigned class: rule not met
//
compound: Cc1cnc(NC(=O)Nc2cc(Br)c(C)cc2OC[C@@H]2CNCCO2)cn1
assigned class: rule not met
//
compound: COc1cc(Nc2ncc(F)c(Nc3ccc4c(n3)N(COP(=O)(O)O)C(=O)C(C)(C)O4)n2)cc(OC)c1OC
assigned class: rule not met
//
compound: CC(C)C[C@H](NC(=O)[C@@H](O)[C@H](N)Cc1ccccc1)C(=O)O
assigned class: rule not met
//
compound: CN1CCN(CCOc2cc(OC3CCOCC3)c3c(Nc4c(Cl)ccc5c4OCO5)ncnc3c2)CC1
assigned class: rule not met
//
compound: O=C(O)C1(C(=O)O)CCC1.[NH2-].[NH2-].[Pt+2]
assigned class: rule not met
//
compound: CNC(=O)c1cc(Oc2ccc(NC(=O)Nc3ccc(Cl)c(C(F)(F)F)c3)cc2)ccn1
assigned class: rule not met
//
compound: CN(C)C[C@@H]1CCn2cc(c3ccccc32)C2=C(C(=O)NC2=O)c2cn(c3ccccc23)CCO1
assigned class: rule not met
//
compound: Cc1ccc(-c2csc3ncnc(SCCC(=O)O)c23)cc1
assigned class: rule not met
//
compound: C=CCc1cccc(/C=N/NC(=O)CN2CCN(Cc3ccccc3)CC2)c1O
assigned class: rule met
//
compound: CN(C)Cc1ccc(-c2nc3cccc4c3n2CCNC4=O)cc1
assigned class: rule met
//
compound: COc1ccc2c3n(c(=NC(=O)c4cccnc4)nc2c1OC)CCN3
assigned class: rule not met
//
compound: CNC(=O)c1cc(Oc2ccc(NC(=O)Nc3ccc(Cl)c(C(F)(F)F)c3)c(F)c2)ccn1
assigned class: rule met
//
compound: Cn1c(=O)c(F)c(Nc2ccc(I)cc2F)c2c(=O)n(C[C@@H](O)CO)cnc21
assigned class: rule not met
//
compound: COc1cc2ncnc(Nc3ccc(F)c(Cl)c3)c2cc1NC(=O)/C=C/CN1CCCCC1
assigned class: rule not met
//
compound: CC(C)c1ccc(Cn2ccc3c4c(N)nc(NC5CC5)nc4ccc32)cc1
assigned class: rule met
//
compound: CC(C)n1c(/C=C/C(O)CC(O)CC(=O)O)c(-c2ccc(F)cc2)c2ccccc21 (configuration not stated) [Fluvastatin sodium (Lescol)]
assigned class: rule not met
//
compound: Cc1[nH]c(/C=C2\C(=O)Nc3ccc(S(=O)(=O)Cc4c(Cl)cccc4Cl)cc32)c(C)c1C(=O)N1CCC[C@@H]1CN1CCCC1
assigned class: rule not met
//
compound: CCCCc1nc2cc(/C=C/C(=O)NO)ccc2n1CCN(CC)CC
assigned class: rule met
//
compound: CCC1=C[C@@H]2CN(C1)Cc1c([nH]c3ccccc13)[C@@](C(=O)OC)(c1cc3c(cc1OC)N(C)[C@H]1[C@@](O)(C(=O)OC)[C@H](OC(C)=O)[C@]4(CC)C=CCN5CC[C@]31[C@@H]54)C2
assigned class: rule met
//
compound: CC(C)Oc1cc(Nc2nc(N[C@@H](C)c3ccc(F)cn3)ncc2Cl)n[nH]1
assigned class: rule met

* * *

tested on: RIVA; assay: growth inhibition by drug plus 177Lu-lilotomab satetraxetan (1 - RLU/untreated control) (fraction); higher = stronger inhibition; details: 100 nM; time (day): 6; 177Lu-lilotomab satetraxetan 0.5 ug/ml
Structures can show the parent of a compound that is named as a salt.
Our labelling divides records by growth inhibition by drug plus 177Lu-lilotomab satetraxetan into ranges: low band: < 0.5; middle band: ≥ 0.5 and < 0.6; high band: ≥ 0.6

compound: COc1cc([C@@H]2c3cc4c(cc3[C@@H](O[C@@H]3O[C@@H]5CO[C@@H](C)O[C@H]5[C@H](O)[C@H]3O)[C@H]3COC(=O)[C@H]23)OCO4)cc(OC)c1O [Etoposide (VP-16)]
assigned class: high band
--
compound: CCCC(CCC)C(=O)O [Valproic acid sodium salt (Sodium valproate)]
assigned class: middle band
--
compound: CN(CCOc1ccc(CC2SC(=O)NC2=O)cc1)c1ccccn1 (configuration not stated)
assigned class: middle band
--
compound: Cn1cnc(N)c2ncnc1-2
assigned class: middle band
--
compound: Cc1cc(Nc2cc(N3CCN(C)CC3)nc(Sc3ccc(NC(=O)C4CC4)cc3)n2)n[nH]1
assigned class: high band
--
compound: CC1=C(/C=C/C(C)=C/C=C/C(C)=C/C(=O)Nc2ccc(O)cc2)C(C)(C)CCC1 [Fenretinide]
assigned class: middle band
--
compound: Cc1ccc(-c2cc(C(F)(F)F)nn2-c2ccc(S(N)(=O)=O)cc2)cc1
assigned class: low band
--
compound: COc1cc2nc(N3CCCN(C)CC3)nc(NC3CCN(Cc4ccccc4)CC3)c2cc1OC
assigned class: middle band
--
compound: N#Cc1ccc(C(c2ccc(C#N)cc2)n2cncn2)cc1
assigned class: low band
--
compound: O=c1[nH]nc(Sc2ncc([N+](=O)[O-])s2)n1-c1ccc2c(c1)OCCO2
assigned class: low band
--
compound: COc1ccc(-c2ccc3c(N4CCOCC4)nc(N4C[C@@H](C)O[C@@H](C)C4)nc3n2)cc1CO
assigned class: middle band
--
compound: O=C(O)C(=O)O.[NH-]C1CCCCC1[NH-].[Pt+2] (configuration not stated) [Oxaliplatin (Eloxatin)]
assigned class: middle band
--
compound: CNC(=O)c1ccc(C)c(-n2c(C)cc(OCc3ccc(F)cc3F)c(Br)c2=O)c1
assigned class: low band
